target.of.assay: PI3Kγ (Homo sapiens)
Construct: HA
method.notes: PI3Kγ In Vitro Kinase Assay
condition.details: purified recombinant p101/p110 γ protein with G protein β1/γ2 subunits; 20 μM ATP, 25 μM PIP2; 20 minutes at room temperature; radioactive PIP3 readout
Procedure: Spodtera frugiperda cells, grown in ESF921 media, were coinfected with baculovirus expressing a glu-tagged p101 and baculovirus expressing an HA-tagged p110γ, at a 3:1 ratio of p101 baculovirus to p110γ baculovirus. […] The column fractions with the eluted protein (determined by taking OD280 readings) were collected and dialyzed in 0.2 mM EGTA, 1 mM DTT, 1 mM Pefabloc, 5 μM leupeptin, 0.5% sodium cholate, 150 mM NaCl, and 50% glycerol, pH 8. […]
pIC50: −log10 of the molar value.
recorded.endpoint: pIC50

Before answering, review these 5 worked examples.
{"compound": "COc1cc2c(OC3CCOCC3)c(C(=O)Nc3nn[nH]n3)sc2cc1C", "target.of.assay": "PI3Kγ (Homo sapiens)", "pIC50": 7.62}
{"compound": "COc1cc2sc(C(=O)Nc3nnn[nH]3)c(OCC3C4CCC(C4)C3C)c2cc1OC (centres unmarked)", "target.of.assay": "PI3Kγ (Homo sapiens)", "pIC50": 7.85}
{"compound": "COc1cc2c(OC3CCCC(C)C3)c(C(=O)Nc3nn[nH]n3)sc2cc1C (single isomer, unassigned) [Example 7]", "target.of.assay": "PI3Kγ (Homo sapiens)", "pIC50": 8.52}
{"compound": "COc1cc2sc(C(=O)Nc3nn[nH]n3)c(OC3CCCCC3)c2cc1C", "target.of.assay": "PI3Kγ (Homo sapiens)", "pIC50": 7.70}
{"compound": "COc1cc2sc(C(=O)Nc3nnn[nH]3)c(OC3CCC(C4CCCCC4)CC3)c2cc1OC (centres unmarked)", "target.of.assay": "PI3Kγ (Homo sapiens)", "pIC50": 6.96}

[a] COc1cc2c(OC3CC(C)CC(C)(C)C3)c(C(=O)Nc3nn[nH]n3)sc2cc1C (centres unmarked)
[b] COc1cc2sc(C(=O)Nc3nnn[nH]3)c(OC3CC(C)CC(C)(C)C3)c2cc1OC (centres unmarked)
Query string: Endpoint returns whichever of a and b has the numerically higher pIC50. Kindly state the label of the option you pick.
Result string: a
(a: 8.05, b: 6.77)

* * *

target.of.assay: PI3Kγ (Homo sapiens, UniProt P48736)
Construct: HA; made in house; host or cells: Spodoptera frugiperda (Sf9) cells, baculovirus co-infection
Sequence (P48736 whole entry, species assumed): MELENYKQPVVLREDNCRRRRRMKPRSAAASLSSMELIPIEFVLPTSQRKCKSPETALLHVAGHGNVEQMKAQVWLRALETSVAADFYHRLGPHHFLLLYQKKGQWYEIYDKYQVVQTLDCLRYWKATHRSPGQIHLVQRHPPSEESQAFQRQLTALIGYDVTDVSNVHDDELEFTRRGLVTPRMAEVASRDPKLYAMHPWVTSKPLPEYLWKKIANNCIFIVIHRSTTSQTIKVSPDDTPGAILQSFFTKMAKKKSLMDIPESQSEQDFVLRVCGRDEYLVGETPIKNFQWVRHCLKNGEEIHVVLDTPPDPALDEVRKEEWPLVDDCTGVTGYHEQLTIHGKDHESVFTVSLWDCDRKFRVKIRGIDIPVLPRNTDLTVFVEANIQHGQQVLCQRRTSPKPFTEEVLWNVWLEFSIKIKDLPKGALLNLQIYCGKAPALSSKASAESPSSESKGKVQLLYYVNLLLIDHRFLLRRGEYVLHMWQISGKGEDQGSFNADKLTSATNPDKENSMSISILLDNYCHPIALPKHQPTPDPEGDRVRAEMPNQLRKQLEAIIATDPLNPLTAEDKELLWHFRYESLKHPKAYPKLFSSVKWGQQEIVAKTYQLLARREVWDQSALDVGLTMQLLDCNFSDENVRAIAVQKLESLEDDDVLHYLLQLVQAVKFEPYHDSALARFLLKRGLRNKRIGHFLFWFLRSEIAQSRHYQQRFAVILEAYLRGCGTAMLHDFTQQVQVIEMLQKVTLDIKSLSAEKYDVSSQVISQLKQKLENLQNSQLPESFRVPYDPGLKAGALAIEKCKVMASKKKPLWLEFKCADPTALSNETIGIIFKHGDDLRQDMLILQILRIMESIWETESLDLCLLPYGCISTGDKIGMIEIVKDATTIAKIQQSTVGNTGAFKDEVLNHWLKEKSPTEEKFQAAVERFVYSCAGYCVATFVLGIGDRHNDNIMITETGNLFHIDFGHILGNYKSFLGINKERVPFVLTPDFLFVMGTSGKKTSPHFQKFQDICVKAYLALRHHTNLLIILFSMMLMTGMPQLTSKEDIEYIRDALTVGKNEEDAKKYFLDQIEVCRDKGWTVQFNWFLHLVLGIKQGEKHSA
Sequence (Q8WYR1 whole entry partner, species assumed): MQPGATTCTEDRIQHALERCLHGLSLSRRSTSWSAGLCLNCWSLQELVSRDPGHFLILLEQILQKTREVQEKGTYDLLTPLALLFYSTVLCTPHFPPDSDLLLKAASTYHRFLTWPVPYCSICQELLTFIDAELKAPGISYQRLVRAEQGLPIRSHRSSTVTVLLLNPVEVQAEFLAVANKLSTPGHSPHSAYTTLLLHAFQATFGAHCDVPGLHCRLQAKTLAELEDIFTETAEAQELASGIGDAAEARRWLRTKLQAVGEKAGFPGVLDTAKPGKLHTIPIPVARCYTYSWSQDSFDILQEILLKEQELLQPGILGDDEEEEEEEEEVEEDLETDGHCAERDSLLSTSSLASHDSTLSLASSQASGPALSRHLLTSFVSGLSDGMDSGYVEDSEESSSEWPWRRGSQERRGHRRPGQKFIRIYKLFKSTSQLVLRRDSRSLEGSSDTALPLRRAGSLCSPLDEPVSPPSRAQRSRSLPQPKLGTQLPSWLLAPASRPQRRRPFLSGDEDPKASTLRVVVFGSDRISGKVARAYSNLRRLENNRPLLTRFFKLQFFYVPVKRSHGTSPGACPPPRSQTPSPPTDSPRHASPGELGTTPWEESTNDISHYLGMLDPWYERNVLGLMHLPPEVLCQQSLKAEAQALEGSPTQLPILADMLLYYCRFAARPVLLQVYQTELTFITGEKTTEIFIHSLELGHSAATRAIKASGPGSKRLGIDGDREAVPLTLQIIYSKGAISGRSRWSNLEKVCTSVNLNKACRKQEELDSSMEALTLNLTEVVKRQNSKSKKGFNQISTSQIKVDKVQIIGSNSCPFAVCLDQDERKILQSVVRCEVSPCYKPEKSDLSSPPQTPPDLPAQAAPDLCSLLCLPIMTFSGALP
method.notes: PI3Kγ In Vitro Kinase Assay
Assay type: biochemical
condition.details: purified recombinant p101/p110 γ protein with G protein β1/γ2 subunits; 20 μM ATP, 25 μM PIP2; 20 minutes at room temperature; radioactive PIP3 readout
pIC50: −log10 of the molar value.
recorded.endpoint: pIC50

Examples with answers:
{"molecule": "COc1cc2c(OC3CCCN(C(C)=O)C3)c(C(=O)Nc3nn[nH]n3)sc2cc1C (centres unmarked) [Example 13]", "pIC50": 7.14}
{"molecule": "COc1cc2c(OC3CCN(C(C)=O)CC3)c(C(=O)Nc3nn[nH]n3)sc2cc1C [Example 16]", "pIC50": 7.60}
{"molecule": "COc1cc2c(OC3CCN(Cc4ccccc4)CC3)c(C(=O)Nc3nn[nH]n3)sc2cc1C [Example 9]", "pIC50": 6.60}
{"molecule": "COc1cc2sc(C(=O)Nc3nnn[nH]3)c(OCC3CC=CCC3)c2cc1OC (centres unmarked) [Example 32]", "pIC50": 7.00}

[A] COc1cc2sc(C(=O)Nc3nnn[nH]3)c(OC3CCCCCC3)c2cc1OC [Example 39]
[B] CCC1(COc2c(C(=O)Nc3nnn[nH]3)sc3cc(OC)c(OC)cc23)COC1 [Example 28]
[C] COc1cc2sc(C(=O)Nc3nnn[nH]3)c(OC3CC(C)CC(C)C3)c2cc1OC (centres unmarked) [Example 24]
[D] COc1cc2c(OC3CCCCCC3)c(C(=O)Nc3nn[nH]n3)sc2cc1C [Example 8]
Query string: Order the records so the highest pIC50 appears first and the lowest last. A complete answer lists every label in the requested sequence.
Result string: D, A, C, B

* * *

target.of.assay: PI3Kγ (Homo sapiens)
Construct: HA
method.notes: PI3Kγ In Vitro Kinase Assay
condition.details: purified recombinant p101/p110 γ protein with G protein β1/γ2 subunits; 20 μM ATP, 25 μM PIP2; 20 minutes at room temperature; radioactive PIP3 readout
recorded.endpoint: IC50 (nM)

{"compound": "COc1cc2sc(C(=O)Nc3nnn[nH]3)c(OCC3CCCCC3)c2cc1OC", "recorded.endpoint": "IC50", "test.result": 195}
{"compound": "COc1cc2sc(C(=O)Nc3nnn[nH]3)c(OCCC3CC3)c2cc1OC", "recorded.endpoint": "IC50", "test.result": 371}
{"compound": "COc1cc2c(OCC3(C)CC3)c(C(=O)Nc3nn[nH]n3)sc2cc1C", "recorded.endpoint": "IC50", "test.result": 20}

[1] COc1cc2sc(C(=O)Nc3nnn[nH]3)c(OCC3CCC3)c2cc1OC
[2] COc1cc2sc(C(=O)Nc3nn[nH]n3)c(OCC3CC3(Cl)Cl)c2cc1OC (stereo not drawn)
Query string: Pick one: 1 or 2 . Which has the bigger IC50 number? Respond using the label that marks the chosen record.
Result string: 2

* * *

target.of.assay: PI3Kγ (Homo sapiens)
Construct: HA
method.notes: PI3Kγ In Vitro Kinase Assay
condition.details: purified recombinant p101/p110 γ protein with G protein β1/γ2 subunits; 20 μM ATP, 25 μM PIP2; 20 minutes at room temperature; radioactive PIP3 readout
pIC50: −log10 of the molar value.
recorded.endpoint: pIC50

Some compounds with known pIC50 results, for comparison:
{"compound": "COc1cc2c(OC3CC(C)(C)CC(C)(C)C3)c(C(=O)Nc3nn[nH]n3)sc2cc1C", "test.result": 6.78}
{"compound": "COc1cc2sc(C(=O)Nc3nnn[nH]3)c(OC3CCOC3)c2cc1OC (centres unmarked)", "test.result": 6.24}
{"compound": "COc1cc2c(OC3CCCN(C(=O)OC(C)(C)C)C3)c(C(=O)Nc3nn[nH]n3)sc2cc1C (centres unmarked)", "test.result": 7.28}
{"compound": "COc1cc2c(OCCCC3CCCCC3)c(C(=O)Nc3nn[nH]n3)sc2cc1C", "test.result": 7.55}

[1] COc1cc2sc(C(=O)Nc3nnn[nH]3)c(OC3CCC3)c2cc1OC
[2] COc1cc2sc(C(=O)Nc3nnn[nH]3)c(OC3CCCCCCC3)c2cc1OC
[3] COc1cc2c(OC3CCCC(C)(C)C3)c(C(=O)Nc3nn[nH]n3)sc2cc1C (centres unmarked)
[4] COc1cc2c(OC3CCN(C(=O)OC(C)(C)C)CC3)c(C(=O)Nc3nn[nH]n3)sc2cc1C
Query string: Provide the items ranked by increasing pIC50. # list labels per requested ordering
Result string: 1, 2, 4, 3
(1: 7.04, 2: 7.32, 4: 7.62, 3: 8.10)

* * *

target.of.assay: PI3Kγ (Homo sapiens, UniProt P48736)
Construct: HA
method.notes: PI3Kγ In Vitro Kinase Assay
condition.details: purified recombinant p101/p110 γ protein with G protein β1/γ2 subunits; 20 μM ATP, 25 μM PIP2; 20 minutes at room temperature; radioactive PIP3 readout
pIC50: −log10 of the molar value.
recorded.endpoint: pIC50

Examples from the recorded data:
{"compound": "COc1cc2sc(C(=O)Nc3nnn[nH]3)c(OC3CCOCC3)c2cc1OC [Example 41]", "pIC50": 7.08}
{"compound": "CCC(Oc1c(C(=O)Nc2nnn[nH]2)sc2cc(OC)c(OC)cc12)C1CCCCC1 (stereo not drawn) [Example 44]", "pIC50": 6.80}
{"compound": "COc1cc2sc(C(=O)Nc3nnn[nH]3)c(OC3CCC(C)C(C)C3)c2cc1OC (stereo not drawn) [Example 45]", "pIC50": 7.28}
{"compound": "COc1cc2sc(C(=O)Nc3nnn[nH]3)c(OC3CCCC3)c2cc1OC [Example 50]", "pIC50": 6.92}
{"compound": "COc1cc2sc(C(=O)Nc3nnn[nH]3)c(OC3CCC4CCCCC4C3)c2cc1OC (stereo not drawn) [Example 47]", "pIC50": 6.95}

[a] COc1cc2c(OC3CCN(C4CCCCC4)CC3)c(C(=O)Nc3nn[nH]n3)sc2cc1C [Example 11]
[b] COc1cc2sc(C(=O)Nc3nnn[nH]3)c(OCC3CC3)c2cc1OC [Example 35]
Query string: For the two items a and b , which reports the higher pIC50 value? Lab note: record the label of whichever item you select.
Result string: b
(b: 6.46, a: 6.02)

[a] COc1cc2c(OC3CCCCC3)c(C(=O)Nc3nn[nH]n3)sc2cc1C [Example 6]
[b] COc1cc2c(OC3CCCNC3)c(C(=O)Nc3nn[nH]n3)sc2cc1C (stereo not drawn) [Example 10]
Query string: Which of the two items, a and b , has the greater recorded pIC50? Provide the label of your selected option as the answer.
Result string: a

Every entry's value here was drawn from patent US20050020630A1.
